# assay.summary: Quantitative High-Throughput drug screen in 47 multiple myeloma cell lines against the NCATS MIPE library collection: INA6_PLB cell viability assay (AID 1918965; note: nearly all actives have a fitted effect of over 55% in size)
# cond: INA6 myeloma viability, CellTiter-Glo ATP luminescence, 48 h; series mostly up to 45.8 µM
Records with an inconclusive call do not appear. Calls of active or inactive are those of the source. Calls come from the whole dose curve; as a rule, active = well fitted cell-killing curve with a large enough effect; inconclusive = small, poorly fitted or top-dose-only effect, or effect the other way; inactive = no such curve, though single readings can be large or run the other way.
Returns: one label drawn from yes (active), no (inactive)

molecule	discrete.label
C=C1C(=O)O[C@H]2[C@@H]1CCC(C)=CCC[C@@]1(C)O[C@@H]21	yes
CCOC(=O)N1CCN([N+]([O-])=NOc2ccc([N+](=O)[O-])cc2C#N)CC1	yes

// param item: `CCc1c(O)cc(O)c(C(=O)c2ccc(OCCN3CCOCC3)c(OC)c2)c1CC(=O)N(CCOC)CCOC` ; yields the recorded call
yes

Please state the recorded outcome for this molecule: `CN1C(C(=O)Nc2ccccn2)=C(O)c2sc(Cl)cc2S1(=O)=O`
yes

Hi, do you know how `Nc1nc(N)c2nc(-c3cccc(O)c3)c(-c3cccc(O)c3)nc2n1` came out in this test?
yes

So what was the verdict on CC(=O)C1=C(O)C=C2Oc3c(C(C)=O)c(O)c(C)c(O)c3C2(C)C1=O (centres undefined) in this test?
no

In this assay, the call recorded for `FC(F)c1nc2ccccc2n1-c1nc(N2CCOCC2)nc(N2CCOCC2)n1` was what?
yes

Per the assay record, what outcome was assigned to `O=c1[nH]c(=O)n([C@H]2C[C@@H](O)[C@@H](CO)O2)cc1C=CBr` ?
no

Could you please tell me the result logged for `Nc1nc2c(c(=O)[nH]1)N(C=O)[C@H](CNc1ccc(C(=O)N[C@@H](CCC(=O)O)C(=O)O)cc1)CN2` in this assay?
no

Values from PubChem BioAssay (NCATS)
